Hey, just so you know, these numbers are from ChEMBL document CHEMBL1139907.

# RUN_DESCRIPTION: Cytotoxicity against Huh-5-2 cells
# Type: cell-based
# PARTICULARS: human
PARAMETER_MEASURED: CC50

O=C(O)c1ccc2c(c1)nc(-c1ccc(OCc3cc(N4CCCC4=O)ccc3Oc3ccc(Cl)cc3)cc1F)n2C1CCCCC1 | > 20 µM
O=C(O)c1ccc2c(c1)nc(-c1ccc(OCc3cc(N4CCCC4=O)ccc3-c3ccc(Cl)cc3)cc1F)n2C1CCCCC1 | > 20 µM
CC(=O)N(C)c1ccc(N2CCOCC2)c(COc2ccc(-c3nc4cc(C(=O)O)ccc4n3C3CCCCC3)c(F)c2)c1 | > 20 µM
CC(=O)N(c1ccc(N2CCOCC2)c(COc2ccc(-c3nc4cc(C(=O)O)ccc4n3C3CCCCC3)c(F)c2)c1)C(C)C | > 20 µM
COCCN(C)c1ccc(N2CCCC2=O)cc1COc1ccc(-c2nc3cc(C(=O)O)ccc3n2C2CCCCC2)c(F)c1 | > 20 µM
Cn1c(-c2ccc(OCc3cc(N4CCCC4=O)ccc3N3CCOCC3)cc2)c(C2CCCCC2)c2ccc(C(=O)O)cc21 | > 20 µM
O=C(O)c1ccc2c(c1)nc(-c1ccc(OCc3cc(N4CCCC4=O)ccc3N3CCC(O)CC3)cc1F)n2C1CCCCC1 | > 20 µM
O=C(O)c1ccc2c(c1)nc(-c1ccc(OCc3ccccc3N3CCOCC3)cc1F)n2C1CCCCC1 | > 20 µM
CN(C)C(=O)c1ccc(N2CCOCC2)c(COc2ccc(-c3nc4cc(C(=O)O)ccc4n3C3CCCCC3)c(F)c2)c1 | > 20 µM
O=C(O)c1ccc2c(c1)nc(-c1ccc(OCc3cc(N4CCCC4=O)ccc3N3CCOCC3)cc1F)n2C1CCCCC1 | > 20 µM

// input: 3 molecules below; output: CC50 for each
1. O=C(O)c1ccc2c(c1)nc(-c1ccc(OCc3cc(N4CCCC4=O)ccc3N3CCCCC3)cc1F)n2C1CCCCC1
2. O=C(O)c1ccc2c(c1)nc(-c1ccc(OCc3cc(N4CCCCC4=O)ccc3N3CCOCC3)cc1F)n2C1CCCCC1
3. COCC(=O)N(C)c1ccc(N2CCOCC2)c(COc2ccc(-c3nc4cc(C(=O)O)ccc4n3C3CCCCC3)c(F)c2)c1

(A)
["> 20 µM", "> 20 µM", "> 20 µM"]
